Origin of measurements: patent US9296753B2

Assay Info: Thermodynamic aqueous solubility
Format: physicochemical
Protocol Conditions: water, 25 °C, pH 8, aqueous buffer, thermodynamic from solid, pH 8; 25° C., 24 hours; read-out: Conc. Found (solubility in aqueous solution)

{"Compound": "C=CC(=O)N1CCC[C@@H](n2nc(-c3ccc(Oc4ccccc4)cc3)c3c(N)ncnc32)C1 [Form A]", "solubility at 24 h": "~13 µg/mL"}

###

Assay Info: Thermodynamic aqueous solubility
Type: physicochemical
Protocol Conditions: water, 25 °C, pH 1.64, simulated gastric fluid, thermodynamic from solid, pH 1.64; 25° C., 24 hours; read-out: Conc. Found (solubility in aqueous solution)

{"Compound": "C=CC(=O)N1CCC[C@@H](n2nc(-c3ccc(Oc4ccccc4)cc3)c3c(N)ncnc32)C1 [Form A]", "solubility at 24 h": "1070 µg/mL"}

###

Assay Info: Thermodynamic aqueous solubility
Type: physicochemical
Protocol Conditions: water, 25 °C, pH 10, aqueous buffer, thermodynamic from solid, pH 10; 25° C., 24 hours; read-out: Conc. Found (solubility in aqueous solution)
Recorded Endpoint: solubility at 24 h (µg/mL)

{"Molecule": "C=CC(=O)N1CCC[C@@H](n2nc(-c3ccc(Oc4ccccc4)cc3)c3c(N)ncnc32)C1 [Form A]", "Value Measured": 10}

###

Assay Info: Thermodynamic aqueous solubility
Format: physicochemical
Protocol Conditions: water, 25 °C, pH 7.42, water, thermodynamic from solid, pH of about 7.42; read-out: observed aqueous solubility

{"Compound": "C=CC(=O)N1CCC[C@@H](n2nc(-c3ccc(Oc4ccccc4)cc3)c3c(N)ncnc32)C1 [Form B]", "solubility at 24 h": "~9.6 µg/mL"}

###

Assay Info: Thermodynamic aqueous solubility
Type: physicochemical
Protocol Conditions: water, 25 °C, pH 9, aqueous buffer, thermodynamic from solid, pH 9; 25° C., 24 hours; read-out: Conc. Found (solubility in aqueous solution)
Method: The suspension was equilibrated at 25° C. for 24 hours then the pH was measured. The suspension was then filtered through a glass fibre C filter. The filtrate was then diluted by an appropriate factor e.g. 101. Quantitation was by HPLC with reference to a standard solution of approximately 0.25 mg/ml in DMSO. […] The solubility was calculated using the peak areas determined by integration of the peak found at the same retention time as the principal peak in the standard injection. […]

{"Compound": "C=CC(=O)N1CCC[C@@H](n2nc(-c3ccc(Oc4ccccc4)cc3)c3c(N)ncnc32)C1 [Form A]", "solubility at 24 h": "20 µg/mL"}

###

Assay Info: Thermodynamic aqueous solubility
Assay type: physicochemical
Protocol Conditions: water, 25 °C, pH 3, aqueous buffer, thermodynamic from solid, pH 3; 25° C., 24 hours; read-out: Conc. Found (solubility in aqueous solution)
Protocol: The suspension was equilibrated at 25° C. for 24 hours then the pH was measured. The suspension was then filtered through a glass fibre C filter. The filtrate was then diluted by an appropriate factor e.g. 101. Quantitation was by HPLC with reference to a standard solution of approximately 0.25 mg/ml in DMSO. […] The solubility was calculated using the peak areas determined by integration of the peak found at the same retention time as the principal peak in the standard injection. […]

{"Compound": "C=CC(=O)N1CCC[C@@H](n2nc(-c3ccc(Oc4ccccc4)cc3)c3c(N)ncnc32)C1 [Form A]", "solubility at 24 h": "100 µg/mL"}

###

Assay Info: Thermodynamic aqueous solubility
Assay type: physicochemical
Protocol Conditions: water, 25 °C, pH 5, aqueous buffer, thermodynamic from solid, pH 5; 25° C., 24 hours; read-out: Conc. Found (solubility in aqueous solution)

{"Molecule": "C=CC(=O)N1CCC[C@@H](n2nc(-c3ccc(Oc4ccccc4)cc3)c3c(N)ncnc32)C1 [Form A]", "solubility at 24 h, µg/mL": 17}

###

Assay Info: Thermodynamic aqueous solubility
Assay type: physicochemical
Protocol Conditions: water, 25 °C, pH 6, aqueous buffer, thermodynamic from solid, pH 6; 25° C., 24 hours; read-out: Conc. Found (solubility in aqueous solution)

{"Molecule": "C=CC(=O)N1CCC[C@@H](n2nc(-c3ccc(Oc4ccccc4)cc3)c3c(N)ncnc32)C1 [Form A]", "Quantity Unit": "µg/mL", "solubility at 24 h": 15}

###

Assay Info: Thermodynamic aqueous solubility
Format: physicochemical
Protocol Conditions: water, 25 °C, pH 7.42, water, thermodynamic from solid; pH of 7.42
Recorded Endpoint: solubility thermodynamic at 24 h

{"Compound": "C=CC(=O)N1CCC[C@@H](n2nc(-c3ccc(Oc4ccccc4)cc3)c3c(N)ncnc32)C1 [Form B]", "Recorded Endpoint": "solubility thermodynamic at 24 h", "Value Measured": "9.6 µg/mL"}
